- Test system: V41 penicillin resistant Staphylococcus
- assay_comment: Gradient plate in vitro antibiotic activity (MIC), V41 penicillin resistant Staphylococcus
- Assay type: cell-based
- cond: read-out: Minimum Inhibitory Concentration
result_type: MIC (µg/mL)
One number for each entry, in µg/mL.

// known answers, use as guide
compound: Cn1c(SCC2=C(C(=O)O)N3C(=O)C(NC(=O)C(NC(=O)c4nc5ccccc5[nH]4)c4ccc(O)cc4)C3SC2)nnc(O)c1=O (stereo not shown)
MIC (µg/mL): 0.8
//
compound: Cn1nnnc1SCC1=C(C(=O)O)N2C(=O)C(NC(=O)C(NC(=O)c3nc4ccccc4[nH]3)c3cccs3)C2SC1 (stereo not shown)
MIC (µg/mL): 0.6
//
compound: CC(=O)OCC1=C(C(=O)O)N2C(=O)C(NC(=O)C(NC(=O)c3nc4ccccc4[nH]3)c3ccccc3)C2SC1 (stereo not shown)
MIC (µg/mL): 4

Note: attention shifts to another entry.
Bench note: what MIC did Cc1nnc(SCC2=C(C(=O)O)N3C(=O)C(NC(=O)C(NC(=O)c4nc5ccccc5[nH]4)c4ccc(O)cc4)C3SC2)s1 (stereo not shown) show? 4
